measured.target: JH2 domain of human Tyk2 (Homo sapiens)
Construct: 10×His-tagged TYK2 JH2 domain (amino acid 575-876)
Sequence (P29597 575-876): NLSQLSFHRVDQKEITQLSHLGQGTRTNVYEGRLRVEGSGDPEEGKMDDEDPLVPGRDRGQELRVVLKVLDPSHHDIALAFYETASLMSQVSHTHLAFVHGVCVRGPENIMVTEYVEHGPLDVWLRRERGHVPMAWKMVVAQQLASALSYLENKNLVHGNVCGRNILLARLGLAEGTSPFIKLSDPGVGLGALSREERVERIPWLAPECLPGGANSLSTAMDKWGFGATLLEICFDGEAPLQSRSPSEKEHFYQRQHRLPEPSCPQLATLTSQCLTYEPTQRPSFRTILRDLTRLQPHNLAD
test.name: JH2 biochemical assay (TR-FRET probe displacement)
Assay type: binding
reported.conditions: JH2 biochemical assay
Procedure: The inhibitory potency of compounds of the disclosure against the kinase activity of recombinantly generated JH2 domain of human Tyk2 was evaluated in a plate-based assay using a TR-FRET assay platform. […] The TR-FRET signal inversely correlates to the amount of probe displaced by compounds and signal was calculated by taking the ratio of fluorescence at 520 nm and 495 nm. […]
pIC50: −log10 of the molar value. Where a name gives a salt, the structure may show the parent alone.
Consider the following molecules; for each one, report its pIC50.

CC(=O)Nc1cc2c(cn1)C1(CC1)CN2c1cc(NC2CC2C)nc(C(C)(F)F)n1 (centres unmarked) [Example 182, trifluoroacetate] : ≥ 8.00

Report pIC50 for each item below.
1. CC(=O)Nc1cc2c(cn1)C1(CC1)CN2c1cc(CCCOC(C)(C)C)nc(C(C)(F)F)n1
2. CC(=O)Nc1cc2c(cn1)C1(CC1)CN2c1cc(C)nc(C2CC2)n1
3. CC(=O)Nc1cc2c(cn1)C1(CC1)CN2c1ccnc(C(C)(C)F)n1
4. CC(=O)Nc1cc2c(cn1)CCN2c1ccnc(C(C)(F)F)n1
5. CC(=O)Nc1cc2c(cn1)C1(CC1)CN2c1cc(C)nc(-c2cnn(C)c2)n1 [Example 245, trifluoroacetate]
6. CC(=O)Nc1cc2c(cn1)C1(CC1)CN2c1cc([C@@H]2C[C@@H]2C#N)nc(C(C)(F)F)n1 (racemic)
7. CC(=O)Nc1cc2c(cn1)C1(CCC1)CN2c1ccnc(C(C)(F)F)n1

**Result**
1. ≥ 8.00
2. ≥ 8.00
3. ≥ 8.00
4. 6.00 to 7.00
5. 7.00 to 8.00
6. ≥ 8.00
7. 7.00 to 8.00
